# Tested on: K4 kissing-loop RNA reporter;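 further: bound reporter read as fluorescence of individual clusters on recovered sequencing chips by microscopy, with normalized cluster intensities fitted with a binding model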
# procedureText: apparent KD of K4 kissing-loop reporter; higher = weaker reporter binding
# recordedConditions: Eterna round: R107; input ligand: none
Readings of apparent KD of K4 kissing-loop reporter for the listed sequences
Note: a bare number is incomplete; add the unit.

- sequenceContent: "GCGUUCAUGGCAGGAUAUAGGUAAAGGAGUGAUGUUCCUUAUGUUGCAUUUACUUAAUCCAACUCCCUAGAAGGGCCAUGAACGC"
  testTarget: "K4 kissing-loop RNA reporter"
  apparent KD of K4 kissing-loop reporter: "151 nM"
- sequenceContent: "AAACGUUGGUCUGAUACCAGCUUGAUCGGUAAACGAUCUACUGGAGUGAUGUUCCUAAAUAGCCCUUGGCAGCAGACCGACGAAA [MAT - Same State Theophlline B - Mod of Eli - D7]"
  testTarget: "K4 kissing-loop RNA reporter"
  apparent KD of K4 kissing-loop reporter: "173 nM"
- sequenceContent: "UGGAUAUAGUGAUGUUAUAUAGAGAUUGAUACCAGUUAAGAGAAUAGCCCUUGGCAGCAGAAAGAAGUAUCAUUAGAGAAGAAUG [ExTheophyl.Ac]"
  testTarget: "K4 kissing-loop RNA reporter"
  apparent KD of K4 kissing-loop reporter: "222 nM"
- sequenceContent: "CGGAUGUAGUGAUGUUAUAUUAGAUGUAGACGAGGACCGGUACGGCCGCCACUCGUGAUGGCUGCUAGCACGUUUCGAUGUUUGC [ExTryptoA.Cq]"
  testTarget: "K4 kissing-loop RNA reporter"
  apparent KD of K4 kissing-loop reporter: "624 nM"
- sequenceContent: "GGGCGCGGCGCGGCCGCCACUGGGCCUGGGCGCUCGCUGAGUGAUGUUCGUCGGCGGCUGGGUCGUAGGACCGGGUGCCGGCUGG [BDazzled - #4 SS Tryptophan B]"
  testTarget: "K4 kissing-loop RNA reporter"
  apparent KD of K4 kissing-loop reporter: "1320 nM"

Read the next record carefully.
Entry under review: AGAGUUGACGAAAAGUCAACUCUACGAGAAGGAGCGCACGAAAGUGCAGGUAGGUCGCUCAGUCCAGUGAUGUUGGAACAUAAAA [#OpenEnded 8] . Reported apparent KD of K4 kissing-loop reporter?
68.8 nM

---

# Test system: MS2 coat protein
# procedureText: apparent KD of MS2 coat protein; designed switch direction (-1 OFF switch, 1 ON switch): -1; higher = weaker reporter binding
# recordedConditions: input ligand: none
Class true (1): apparent KD of MS2 coat protein at least 30 nM. Class false (0): apparent KD of MS2 coat protein below 30 nM.

Worked set:
- sequenceContent: "ACCAAGUCAGGAUAUCCAGUUAGCCUUCGAGGCUGGGAAUAGGAGAAGGGACAUGAGGAUCACCCAUGUGGGCC [Eternabot (L2) Solution 78] (Eterna round: R97, puzzle: Exclusion 4)"
  testTarget: "MS2 coat protein"
  assignedClass: "true (1)"
- sequenceContent: "AUAAUGUCAGGAUAUCAGUCGACUAGCUGCGGCUAGUCGACUGAGAAGGGACAUGAGGAUCACCCAUGUGUUUC [E4/14-A3] (Eterna round: R97, puzzle: Exclusion 4)"
  testTarget: "MS2 coat protein"
  assignedClass: "true (1)"
- sequenceContent: "CUCGGCUAAGGAUAUGCAUAGCGGGCCAAGUCUUCUCAAGUACAUGAGGAUCACCCAUGUAGAAGGUAGUUAAC [EX2 B.29] (Eterna round: R97, puzzle: Exclusion 2)"
  testTarget: "MS2 coat protein"
  assignedClass: "false (0)"
- sequenceContent: "CUGUUUGUAGGAUAUACAUGCGGAACCCUCCUCGUGUGAAGACAUGAGGAUCACCCAUGUAGAAGGACGAGGAG [Angeer] (Eterna round: R97, puzzle: Exclusion 2)"
  testTarget: "MS2 coat protein"
  assignedClass: "false (0)"

Does apparent KD of MS2 coat protein meet or surpass 30 nM for AGGUGUCUCUGGAAACAUGAGGAUCACCCAUGUUGAGUUAGCGAGGAUAUCGGUAACCAUUGUUAUGAGAAGGCGCAAACCAGA [Ex NG3 #39] (Eterna round: R96, puzzle: Exclusion NG 3) ?
false (0)

Does apparent KD of MS2 coat protein meet or surpass 30 nM for AAAUUGGUAGAGGAUAUCGCACAGGAAACACUGCGAGAAGGCUGCACAUGAGGAUCACCCAUGUUUAGUUGCGA [EX6 #37] (Eterna round: R97, puzzle: Exclusion 6) ?
false (0)

Does apparent KD of MS2 coat protein meet or surpass 30 nM for GCAGCUAAUCGAGGAUAUCAGCACGUGUAGUGCUGAGAAGGCGACAUGAGGAUCACCCAUGUGAUCAAUUAAUAUUAAUGCUGC [ENG1/11-A3] (Eterna round: R96, puzzle: Exclusion NG 1) ?
true (1)

Does apparent KD of MS2 coat protein meet or surpass 30 nM for UCGUCCUGUGUAGGAUAUCGCGGGCUUUGCCCGCGAGAAGGACAUGAGGAUCACCCAUGUGGGCCGCGCCGCGGGCGCGGCCCA [new design] (Eterna round: R96, puzzle: Exclusion NG 1) ?
true (1)

Does apparent KD of MS2 coat protein meet or surpass 30 nM for CGGGUUCGUGUUAGGAUAUGCACGCACCCGUAGCGGCAGAAGGAACAUGAGGAUCACCCAUGUGAAUAAGAAAA [BmEX4 A.3] (Eterna round: R97, puzzle: Brourd's mod of Exclusion 4) ?
false (0)

Does apparent KD of MS2 coat protein meet or surpass 30 nM for AUAAAAGAAGUUAGGAUAUGGAAUCGUGGCAACGACCAGAAGGAACUUGAGGAUCACCCAAGUGAUUCUGAUCG [Atzaace] (Eterna round: R97, puzzle: Brourd's mod of Exclusion 4) ?
false (0)

Does apparent KD of MS2 coat protein meet or surpass 30 nM for CAGCCCUGAGGAUAUCCCUCCUUGUACAUGAGGAUCACCCAUGUUCUCCUCUGGGCUUUGGGAGAAGGCAGAUCUC [Megrez-6.9] (Eterna round: R97, puzzle: Exclusion 5) ?
true (1)

Does apparent KD of MS2 coat protein meet or surpass 30 nM for UUGAUGUAAGGAUAUCGUGCAAGUUUCAAAAGAGGCUUGUGCGAGAAGGUACAUGAGGAUCACCCAUGUAGGUU [Omei Ex4 B8] (Eterna round: R97, puzzle: Exclusion 4) ?
true (1)

Does apparent KD of MS2 coat protein meet or surpass 30 nM for ACAUAUGUUAGAGGAUCCUACAUGAGGAUCACCCAUGUCGGUAUAAAACUCACACGGUCAACGCUUUUUGUUCGCUA [Eternabot (L1) Solution 2] (Eterna round: R97, puzzle: Sensor, turn-off variant 1) ?
true (1)

Does apparent KD of MS2 coat protein meet or surpass 30 nM for GCUGGUCGAGGAUAUACAUUCGUGCUUCGGCACGUAAGGUCACAUGAGGAUCACCCAUGUAGAAGGCGACCAGC [E2/7-A1] (Eterna round: R97, puzzle: Exclusion 2) ?
true (1)

---

# Tested on: MS2 coat protein
# procedureText: apparent KD of MS2 coat protein; designed switch direction (-1 OFF switch, 1 ON switch): -1; higher = weaker reporter binding
# recordedConditions: Eterna round: R95; input ligand: microRNA oligo, concentration not stated
Class Satisfied: apparent KD of MS2 coat protein at least 200 nM. Class Not satisfied: apparent KD of MS2 coat protein below 200 nM.

Worked set:
- sequenceContent: "GAUAGAGCAGGAUAUUCAAUAUAUCACAUGAGGAUCACCCAUGUCCAGCGAAAGCUGGAGGGAGAAGGGCUCUAUC [Mat - Exclusion 5 - Eli mod - D99] (puzzle: Exclusion 5)"
  assignedClass: "Satisfied"
- sequenceContent: "GCUUUUCUUUUCCUUUCUUACAUGAGGAUCACCCAUGUUUCUUGUCGUCCUCGCGUUGCUCGUCUGUCUGUCUGUUG [salish99_TOv1_r3_078] (puzzle: Sensor v3, turn-off variant 1)"
  assignedClass: "Not satisfied"

Does apparent KD of MS2 coat protein meet or surpass 200 nM for ACAAGCUUUUUGUUCGUCUUAUACACUCCUAAUAGGACAACAUGAGGAUCACCCAUGUAACAAAGACGAACUCAUGU [Sesor Array 9 - Jieux - Sensor v3, turn-off variant 2] (puzzle: Sensor v3, turn-off variant 2) ?
Not satisfied

Does apparent KD of MS2 coat protein meet or surpass 200 nM for CAGUACUGAGGAUAUACAUGAGGAUCACCCAUGUGUUCCAGCUAGGAGACUAGCAAAAGUAGAAGGCAGUACUG [salish99_ex3_r3_074] (puzzle: Exclusion 3) ?
Not satisfied

Does apparent KD of MS2 coat protein meet or surpass 200 nM for CCCAUGUUAGGAUAUCGGCUCCGCCGUUCCACAUGGCGCUCCGAGAAGGAACAUGAGGAUCACCCAUGUAAAGA [Raza] (puzzle: Exclusion 4) ?
Not satisfied

Does apparent KD of MS2 coat protein meet or surpass 200 nM for AAGUACCGUCACGAUAGUGAUGGUACAGCAAGUAGUGAAACAUGAGGAUCACCCAUGUCCUCAAUUGCUCGUCUUAU [Sensor 3 - 82] (puzzle: Sensor v3, turn-off variant 2) ?
Not satisfied

Does apparent KD of MS2 coat protein meet or surpass 200 nM for UAAUACAUCUAUGGGAGUAACAUGAGGAUCACCCAUGUAUGUCUUGUUUUUUGUUCGUCAUAGACUUUCUGAUCAGU [JR_SV3TOV1_Sub029] (puzzle: Sensor v3, turn-off variant 1) ?
Not satisfied

Data provenance is the supplement of paper PMC9170038.
